- tested target: murine IDO (Mus musculus, UniProt P28776)
- Construct: expressed in transfected cells; host or cells: 293-T-REx cells (Invitrogen), doxycycline-inducible CMV-tet promoter
- Sequence (P28776 whole entry): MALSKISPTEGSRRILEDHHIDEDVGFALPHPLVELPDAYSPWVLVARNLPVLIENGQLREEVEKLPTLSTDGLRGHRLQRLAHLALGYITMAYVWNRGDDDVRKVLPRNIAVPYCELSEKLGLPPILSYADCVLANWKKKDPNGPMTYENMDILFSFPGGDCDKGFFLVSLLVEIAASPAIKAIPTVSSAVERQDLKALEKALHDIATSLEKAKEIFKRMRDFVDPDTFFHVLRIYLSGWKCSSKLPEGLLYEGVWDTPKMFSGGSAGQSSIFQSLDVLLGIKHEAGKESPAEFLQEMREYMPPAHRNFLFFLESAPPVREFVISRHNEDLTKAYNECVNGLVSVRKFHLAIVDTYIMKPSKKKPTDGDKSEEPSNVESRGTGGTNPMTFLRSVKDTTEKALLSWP
- method notes: Cell based IDO/kynurenine assay in 293-T-Rex cells expressing murine IDO
- condition: mIDO EC50, Table 16; cells expressing murine IDO
parameter measured: EC50

State measured EC50 of the compound NOCc1cc([N+](=O)[O-])cc([N+](=O)[O-])c1 [compound 1657, O-(3,5-dinitrobenzyl)hydroxylamine] with murine IDO (Mus musculus, UniProt P28776).
< 10 µM

* * *

- tested target: murine IDO (Mus musculus, UniProt P28776)
- Construct: expressed in transfected cells; host or cells: 293-T-REx cells (Invitrogen), doxycycline-inducible CMV-tet promoter
- method notes: Cell based IDO/kynurenine assay in 293-T-Rex cells expressing murine IDO
- condition: Table 15; printed as a number instead of a range class; read-out: mIDO EC50
parameter measured: EC50 (nM)
Numbers only, in nM.

Quote EC50 reported for NOCc1cc(F)cc(F)c1 [compound 1770, O-(3,5-difluorobenzyl)hydroxylamine] please.
2300

* * *

- tested target: UniProtKB P14902
- method notes: Enzymatic IDO assay (kynurenine production, absorbance 480 nm)
- condition: hIDO IC50, recombinant human IDO, enzymatic activity; values reported in ranges
pIC50: −log10 of the molar value.
parameter measured: pIC50

Use these answered entries as a reference point.
compound: NC(CSC(=S)NCCCc1ccccc1)C(=O)O (stereo not drawn) [compound 140]
pIC50: 3.00 to 4.00
--
compound: CSC(=S)NC(C)(C)Cc1c[nH]c2ccccc12 [compound 28]
pIC50: 3.00 to 4.00
--
compound: Cc1ccc(C)c(C(C)CC(=O)O)c1 (stereo not drawn) [compound 261, 3-(2,5-dimethylphenyl)butanoic acid]
pIC50: 3.00 to 4.00
--
compound: Nc1ccccc1NC(=O)CCc1c[nH]c2ccccc12 [compound 592]
pIC50: 3.00 to 4.00
--
compound: Cc1cc2ccccc2cc1CCSC(=S)NCCc1c[nH]c2ccccc12 [compound 47]
pIC50: 3.00 to 4.00
--
compound: Nc1cc(S(=O)O)c2cccnc2c1O [compound 309]
pIC50: 4.00 to 4.70
--
compound: Fc1ccc(CCSC(=S)NCCc2c[nH]c3ccccc23)cc1 [compound 3]
pIC50: 3.00 to 4.00
--
compound: O=C1C=Cc2ccccc2C1=O [compound 167, naphthalene-1,2-dione]
pIC50: > 4.70
--
compound: O=C(Cc1csc(=S)[nH]1)NCc1c[nH]c2ccccc12 [compound 561]
pIC50: 3.00 to 4.00
--
compound: O=C1C(O)=C(CC2=C(O)C(=O)c3ccccc3C2=O)C(=O)c2ccccc21 [compound 477]
pIC50: > 4.70

Below are some compounds; for each one, tell me its pIC50.
1. Oc1ccccc1C(=S)NCCc1c[nH]c2ccccc12 [compound 644]
2. O=C1CSC(=S)N1Cc1c[nH]c2ccccc12 [compound 78]
3. S=C(NCc1c[nH]c2ccccc12)Nc1nccs1 [compound 568]
4. CC(CC(=O)O)c1cccc([N+](=O)[O-])c1 (stereo not drawn) [compound 282, 3-(3-nitrophenyl)butanoic acid]
5. Fc1ccccc1CCSC(=S)NCCc1c[nH]c2ccccc12 [compound 12]
6. S=C(NCCc1c[nH]c2ccccc12)SCCc1cccc(Cl)c1 [compound 8]
7. Nc1ccccc1NC(=O)CCc1csc2ccccc12 [compound 739]
8. Nc1ccccc1NC(=O)CCCc1c[nH]c2ccccc12 [compound 588]

1: 3.00 to 4.00; 2: 3.00 to 4.00; 3: 3.00 to 4.00; 4: 3.00 to 4.00; 5: 3.00 to 4.00; 6: 3.00 to 4.00; 7: 3.00 to 4.00; 8: 3.00 to 4.00

* * *

Consider the following compounds; for each one, report its EC50.
- tested target: murine IDO (Mus musculus)
- Construct: expressed in transfected cells; host or cells: 293-T-REx cells (Invitrogen), doxycycline-inducible CMV-tet promoter
- method notes: Cell based IDO/kynurenine assay in 293-T-Rex cells expressing murine IDO
- condition: Table 16; cells expressing murine IDO; read-out: mIDO EC50

compound: NOCc1ccccc1I [compound 1817, O-(2-iodobenzyl)hydroxylamine]
EC50: 10 to 100 µM

Below are some compounds; for each one, tell me its EC50.
1. Cc1cccc(CON)c1 [compound 1692, O-(3-methylbenzyl)hydroxylamine]
2. NOCCCc1ccccc1 [compound 1693, O-(3-phenylpropyl)hydroxylamine]
3. NOCc1ccc(C(F)(F)F)cc1
4. COc1cccc(CON)c1 [compound 1682, O-(3-methoxybenzyl)hydroxylamine]
5. NOCc1ccc(F)c(Cl)c1 [compound 1673, O-(3-chloro-4-fluorobenzyl)hydroxylamine]

1: 10 to 100 µM; 2: 10 to 100 µM; 3: < 10 µM; 4: < 10 µM; 5: > 1000 µM

* * *

Consider the following compounds; for each one, report its EC50.
- tested target: murine IDO (Mus musculus, UniProt P28776)
- Construct: expressed in transfected cells; host or cells: 293-T-REx cells (Invitrogen), doxycycline-inducible CMV-tet promoter
- method notes: Cell based IDO/kynurenine assay in 293-T-Rex cells expressing murine IDO
- condition: Table 15; cells expressing murine IDO; read-out: mIDO EC50

Use these answered entries as a reference point.
compound: NOCc1c[nH]c2ccccc12 [compound 1742, O-((1H-indol-3-yl)methyl)hydroxylamine]
EC50: < 10 µM

compound: COc1ccc(OC)c(CON)c1 [compound 1771, O-(2,5-dimethoxybenzyl)hydroxylamine]
EC50: < 10 µM

compound: NOCc1c(F)cccc1Cl [compound 1674, O-(2-chloro-6-fluorobenzyl)hydroxylamine]
EC50: 10 to 100 µM

Proceed to the following item.
Quote EC50 reported for COc1ccc(-c2ccc(Cl)cc2CON)cc1 [compound 1914] please.
10 to 100 µM

* * *

- tested target: UniProt P14902
- method notes: Enzymatic IDO assay (kynurenine production, absorbance 480 nm)
- condition: hIDO IC50, Table 16; recombinant human IDO, enzymatic activity
parameter measured: IC50

Use these answered entries as a reference point.
molecule: NOCc1c(F)c(F)c(F)c(F)c1F [compound 1667, O-(perfluorobenzyl)hydroxylamine]
IC50: 10 to 100 µM
//
molecule: NOCc1ccc(I)cc1 [compound 1818, O-(4-iodobenzyl)hydroxylamine]
IC50: < 10 µM

Below are some molecules; for each one, tell me its IC50.
1. NOc1ccccc1 [compound 1900, O-phenylhydroxylamine]
2. NO[C@H](Cc1ccccc1)C(=O)O [compound 1690, (R)-2-(aminooxy)-3-phenylpropanoic acid]
3. NOCc1ccccc1I [compound 1817, O-(2-iodobenzyl)hydroxylamine]

["10 to 100 µM", "100 to 1000 µM", "< 10 µM"]

* * *

- tested target: purified human IDO protein (Homo sapiens)
- Sequence (P14902 whole entry P110S/E119G): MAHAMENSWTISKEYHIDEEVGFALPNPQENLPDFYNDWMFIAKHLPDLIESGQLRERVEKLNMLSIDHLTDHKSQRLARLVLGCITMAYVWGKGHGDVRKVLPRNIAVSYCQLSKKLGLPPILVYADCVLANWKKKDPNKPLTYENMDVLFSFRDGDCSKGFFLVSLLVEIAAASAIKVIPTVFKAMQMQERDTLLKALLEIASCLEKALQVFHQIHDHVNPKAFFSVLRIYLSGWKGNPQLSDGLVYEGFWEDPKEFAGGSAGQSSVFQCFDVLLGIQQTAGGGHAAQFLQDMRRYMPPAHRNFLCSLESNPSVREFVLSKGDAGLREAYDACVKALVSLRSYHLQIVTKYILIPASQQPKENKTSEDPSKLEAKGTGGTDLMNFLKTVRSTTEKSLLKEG
- method notes: Enzymatic IDO assay (kynurenine production, absorbance 480 nm)
- condition: hIDO IC50, recombinant human IDO, enzymatic activity; values reported in ranges
Consider the following compounds; for each one, report its IC50.

Use these answered entries as a reference point.
compound: O=C(O)Cc1cccc2sccc12 [compound 307, 2-(benzo[b]thiophen-4-yl)acetic acid]
IC50: < 20 µM
--
compound: OCCc1c[nH]c2ccccc12 [compound 606, 2-(1H-indol-3-yl)ethanol]
IC50: 100 to 1000 µM
--
compound: S=C1NC(c2ccccc2)NC(c2ccccc2)S1 (centres unmarked) [compound 152]
IC50: 20 to 100 µM
--
compound: C=CCOc1ccc(CC)c(OCC=C)c1 [compound 252, 2,4-bis(allyloxy)-1-ethylbenzene]
IC50: 100 to 1000 µM
--
compound: Oc1ccccc1C(=S)NCc1ccc2ccccc2c1 [compound 607]
IC50: 20 to 100 µM

Below are some compounds; for each one, tell me its IC50.
1. Oc1cc(O)nc(SCc2ccccc2)n1 [compound 222, 2-(benzylthio)pyrimidine-4,6-diol]
2. O=C(Cc1ccccc1)NO [compound 889, N-hydroxy-2-phenylacetamide]
3. O=C1NC(=S)S/C1=C\c1ccc2c(c1)OCO2 [compound 148]
4. CSC(=S)NCCCCCCc1c[nH]c2ccccc12 [compound 27]

100 to 1000 µM
100 to 1000 µM
100 to 1000 µM
100 to 1000 µM

Below are some compounds; for each one, tell me its IC50.
1. O=C1CSC(=S)N1Cc1ccccc1 [compound 79, 3-Benzyl-2-thioxothiazolidin-4-one]
2. S=C(NCCc1c[nH]c2ccccc12)SCCc1ccccc1 [compound 1]
3. Oc1ccc(Cc2ccccc2)c2cccnc12 [compound 664, 5-benzylquinolin-8-ol]
4. S=C(NCCc1c[nH]c2ccccc12)SCc1ccc2c(c1)OCO2 [compound 50]
5. CN(C)c1ccc(/C=C2\CSC(=S)NC2=O)cc1 [compound 150]

1: 20 to 100 µM; 2: 100 to 1000 µM; 3: 100 to 1000 µM; 4: 20 to 100 µM; 5: 100 to 1000 µM
